Just for reference, PubChem BioAssay is where these values come from.

For each entry below, report its inhibition value.
target: L-lactate dehydrogenase (Plasmodium falciparum (isolate CDC / Honduras)) (UniProt Q27743); assay: PfLDH activity inhibition – cell lysate, 3D7 strain, counter-screen for P. falciparum growth inhibition project (AID 2304);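 note: 0% = vehicle and 100% = reference inhibitor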; conditions: P. falciparum 3D7 crude extract, LDH APAD/NBT absorbance; at 2 µM; stronger effect = higher value
Sequence (Q27743 whole entry, looked up): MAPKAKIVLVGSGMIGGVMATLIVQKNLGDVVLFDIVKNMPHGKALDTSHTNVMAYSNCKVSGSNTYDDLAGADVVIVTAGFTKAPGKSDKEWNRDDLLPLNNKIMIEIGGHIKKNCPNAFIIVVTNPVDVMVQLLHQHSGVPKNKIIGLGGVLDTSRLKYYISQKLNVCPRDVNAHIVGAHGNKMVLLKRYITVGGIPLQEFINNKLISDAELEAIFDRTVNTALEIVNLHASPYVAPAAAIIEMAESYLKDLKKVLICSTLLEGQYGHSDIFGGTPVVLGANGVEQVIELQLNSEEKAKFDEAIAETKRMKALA
Report the value in % with no unit label.

[Q] Look up inhibition with L-lactate dehydrogenase (Plasmodium falciparum (isolate CDC / Honduras)) (UniProt Q27743) for this compound: `Cc1ccc(NC(=O)c2ccc(CN3CCCN(Cc4cccc(O)c4)CC3)cc2)cc1C`
[A] 4

[Q] Look up inhibition with L-lactate dehydrogenase (Plasmodium falciparum (isolate CDC / Honduras)) (UniProt Q27743) for this compound: `NC(N)=NCCN(Cc1ccccc1)c1ccc(Cl)cc1`
[A] -3

[Q] Look up inhibition with L-lactate dehydrogenase (Plasmodium falciparum (isolate CDC / Honduras)) (UniProt Q27743) for this compound: `CCN(CC)CCN(Cc1ccc(-c2ccc(C(F)(F)F)cc2)cc1)C(=O)Cn1c(CCc2c(F)cc(F)cc2F)nc(=O)c2ccccc21`
[A] 3

[Q] Look up inhibition with L-lactate dehydrogenase (Plasmodium falciparum (isolate CDC / Honduras)) (UniProt Q27743) for this compound: CCc1ccc(CNCC(CCNc2cc(=O)c3ccccc3[nH]2)NCc2cc(Br)cc(Br)c2)o1 (centres undefined)
[A] 1

[Q] Look up inhibition with L-lactate dehydrogenase (Plasmodium falciparum (isolate CDC / Honduras)) (UniProt Q27743) for this compound: `COc1ccc([N+](=O)[O-])cc1N(Cc1ccccc1-c1ccccc1)S(=O)(=O)c1ccc(C(F)(F)F)cc1`
[A] -2

[Q] Look up inhibition with L-lactate dehydrogenase (Plasmodium falciparum (isolate CDC / Honduras)) (UniProt Q27743) for this compound: `CN(C)Cc1cccc(CNC(=O)c2sccc2OCc2ccc(Cl)cc2)c1`
[A] -6

[Q] Look up inhibition with L-lactate dehydrogenase (Plasmodium falciparum (isolate CDC / Honduras)) (UniProt Q27743) for this compound: `Cc1cc(N)nc2ccc(-c3ccc(CCN)cc3)cc12`
[A] -4

[Q] Look up inhibition with L-lactate dehydrogenase (Plasmodium falciparum (isolate CDC / Honduras)) (UniProt Q27743) for this compound: Cc1c(C(=O)N2CCCC(C(F)(F)F)C2)sc2cccc(F)c12 (centres undefined)
[A] 1

[Q] Look up inhibition with L-lactate dehydrogenase (Plasmodium falciparum (isolate CDC / Honduras)) (UniProt Q27743) for this compound: `Cc1nc(-c2cccc(C(=O)N(Cc3cncn3Cc3cccc(C(F)(F)F)c3)CC3CC3)c2)cs1`
[A] 4

###

experiment: inhibition of 3D7 malaria parasite growth – strain 3D7 (AID 2306);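 note: 0% = DMSO wells and 100% = chloroquine plus artemisinin control wells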; details: P. falciparum 3D7 erythrocytic growth, LDH absorbance, 72 h; at 2 µM; stronger effect = higher value
For each entry below, report its growth inhibition value.
Report the value in % with no unit label.

[Q] Entry under review: `O=c1sn(-c2csc3ccccc23)c2ccccc12` . Reported growth inhibition?
[A] 94

[Q] Entry under review: `N#Cc1ccc(-c2ccc(C(=O)Nc3ccc4c(c3)CCN(C3CCC3)CC4)nc2)cn1` . Reported growth inhibition?
[A] 85

[Q] Entry under review: `Cc1cccc2[nH]c(-c3cccc(-c4ccc(NC(=O)C(=O)c5cccn5C)cc4)c3)nc12` . Reported growth inhibition?
[A] 101

[Q] Entry under review: `O=C(Nc1cccc(CN2CCCN(Cc3cccnc3)CC2)c1)c1cc2ccccc2s1` . Reported growth inhibition?
[A] 92

[Q] Entry under review: `N#Cc1ccc(N(CCOc2ccc3c(c2)CCC(=O)N3)Cc2ccccc2C(F)(F)F)cc1C(F)(F)F` . Reported growth inhibition?
[A] 98
